Reported Ratio values follow for various compounds
Target: Opioid receptors; mu & delta (UniProt P41143+P35372)
Sequence (P35372 whole entry, looked up): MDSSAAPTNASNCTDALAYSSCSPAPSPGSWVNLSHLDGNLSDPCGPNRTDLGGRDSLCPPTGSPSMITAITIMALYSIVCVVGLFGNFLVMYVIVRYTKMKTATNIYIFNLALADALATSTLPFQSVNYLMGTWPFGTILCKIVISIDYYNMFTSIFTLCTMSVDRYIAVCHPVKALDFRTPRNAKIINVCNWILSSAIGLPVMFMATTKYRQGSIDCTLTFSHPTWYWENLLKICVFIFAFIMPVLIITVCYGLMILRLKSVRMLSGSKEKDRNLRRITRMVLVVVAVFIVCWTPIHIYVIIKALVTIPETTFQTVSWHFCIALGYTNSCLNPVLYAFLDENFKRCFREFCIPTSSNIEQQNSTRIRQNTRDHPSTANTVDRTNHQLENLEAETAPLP
Sequence (P41143 whole entry, looked up): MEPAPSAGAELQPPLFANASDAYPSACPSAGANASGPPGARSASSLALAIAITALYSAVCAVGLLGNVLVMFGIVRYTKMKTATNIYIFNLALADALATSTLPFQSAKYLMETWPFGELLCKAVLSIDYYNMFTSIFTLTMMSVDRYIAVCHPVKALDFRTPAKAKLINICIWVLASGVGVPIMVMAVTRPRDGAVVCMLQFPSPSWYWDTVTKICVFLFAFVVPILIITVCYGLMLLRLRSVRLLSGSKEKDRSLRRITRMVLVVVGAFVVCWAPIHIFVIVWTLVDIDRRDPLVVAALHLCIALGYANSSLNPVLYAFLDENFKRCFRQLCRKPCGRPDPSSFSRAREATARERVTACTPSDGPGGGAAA
Assay: Ratio of IC50 against mu opioid to IC50 against delta opioid receptor

Reference set, count: 4
CC1(C)SSC[C@H](NC(=O)[C@H]2NCC[C@H]2c2ccc(O)cc2)C(=O)N[C@@H](Cc2ccccc2)C(=O)N[C@@H]1C(=O)O
160
CC1(C)SSC[C@H](NC(=O)[C@H]2NCC[C@@H]2c2ccc(O)cc2)C(=O)N[C@@H](Cc2ccccc2)C(=O)N[C@@H]1C(=O)O
480
CC1(C)SSC[C@H](NC(=O)C2(N)CCc3cc(O)ccc3C2)C(=O)N[C@@H](Cc2ccccc2)C(=O)N[C@@H]1C(=O)O (single isomer, unassigned)
13
CC1(C)SSC[C@H](NC(=O)[C@@]2(N)Cc3ccc(O)cc3C2)C(=O)N[C@@H](Cc2ccccc2)C(=O)N[C@@H]1C(=O)O
> 29

// next entry
The recorded Ratio for `CC1(C)SSC[C@H](NC(=O)[C@]2(N)CCc3cc(O)ccc3C2)C(=O)N[C@@H](Cc2ccccc2)C(=O)N[C@@H]1C(=O)O` is 16

###

Assay read-out Ki; system under study: Mu-type opioid receptor (Cavia porcellus).
Sequence (P97266 whole entry): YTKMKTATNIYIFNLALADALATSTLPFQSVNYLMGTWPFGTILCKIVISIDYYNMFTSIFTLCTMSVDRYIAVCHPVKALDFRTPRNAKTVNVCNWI
Form entry: value (nM) — number only.

CC1(C)SSC[C@H](NC(=O)C2(N)CCc3cc(O)ccc3C2)C(=O)N[C@@H](Cc2ccccc2)C(=O)N[C@@H]1C(=O)O (single isomer, unassigned)
310
CC1(C)SSC[C@H](NC(=O)[C@H]2NCC[C@@H]2c2ccc(O)cc2)C(=O)N[C@@H](Cc2ccccc2)C(=O)N[C@@H]1C(=O)O
110
CC1(C)SSC[C@H](NC(=O)[C@@]2(N)Cc3ccc(O)cc3C2)C(=O)N[C@@H](Cc2ccccc2)C(=O)N[C@@H]1C(=O)O
840

CC1(C)SSC[C@H](NC(=O)C2NCC[C@H]2c2ccc(O)cc2)C(=O)N[C@@H](Cc2ccccc2)C(=O)N[C@@H]1C(=O)O (single isomer, unassigned) on Mu-type opioid receptor (Cavia porcellus) gives Ki = 4440

`CC1(C)SSC[C@H](NC(=O)[C@]2(N)CCc3cc(O)ccc3C2)C(=O)N[C@@H](Cc2ccccc2)C(=O)N[C@@H]1C(=O)O` on Mu-type opioid receptor (Cavia porcellus) gives Ki = 230

`CC1(C)SSC[C@H](NC(=O)[C@H]2NCC[C@H]2c2ccc(O)cc2)C(=O)N[C@@H](Cc2ccccc2)C(=O)N[C@@H]1C(=O)O` on Mu-type opioid receptor (Cavia porcellus) gives Ki = 720

CC1(C)SSC[C@H](NC(=O)C2NCC[C@@H]2c2ccc(O)cc2)C(=O)N[C@@H](Cc2ccccc2)C(=O)N[C@@H]1C(=O)O (single isomer, unassigned) on Mu-type opioid receptor (Cavia porcellus) gives Ki = 10000

###

Target: Delta-type opioid receptor (Mus musculus)
Sequence (P32300 whole entry): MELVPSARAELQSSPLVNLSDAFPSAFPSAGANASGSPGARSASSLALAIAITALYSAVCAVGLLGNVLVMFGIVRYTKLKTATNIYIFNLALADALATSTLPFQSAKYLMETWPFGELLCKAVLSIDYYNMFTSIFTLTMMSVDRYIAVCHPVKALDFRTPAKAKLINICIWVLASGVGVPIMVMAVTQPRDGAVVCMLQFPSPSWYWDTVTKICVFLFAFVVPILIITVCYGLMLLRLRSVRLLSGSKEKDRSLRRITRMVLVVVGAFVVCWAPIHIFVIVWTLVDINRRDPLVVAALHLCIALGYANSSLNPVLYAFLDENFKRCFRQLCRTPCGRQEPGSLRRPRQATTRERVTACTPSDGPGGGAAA
Test: Inhibitory concentration against delta opioid receptor in mouse vas deferens assay
Type: tissue-based
endpointLabel: IC50 (nM)
Form entry: value (nM) — number only.

CC1(C)SSC[C@H](NC(=O)[C@@]2(N)Cc3ccc(O)cc3C2)C(=O)N[C@@H](Cc2ccccc2)C(=O)N[C@@H]1C(=O)O
340
CC1(C)SSC[C@H](NC(=O)[C@H]2NCC[C@@H]2c2ccc(O)cc2)C(=O)N[C@@H](Cc2ccccc2)C(=O)N[C@@H]1C(=O)O
1.6
CC1(C)SSC[C@H](NC(=O)[C@H]2NCC[C@H]2c2ccc(O)cc2)C(=O)N[C@@H](Cc2ccccc2)C(=O)N[C@@H]1C(=O)O
75

The recorded IC50 for `CC1(C)SSC[C@H](NC(=O)[C@]2(N)CCc3cc(O)ccc3C2)C(=O)N[C@@H](Cc2ccccc2)C(=O)N[C@@H]1C(=O)O` is 110

The recorded IC50 for `CC1(C)SSC[C@H](NC(=O)[C@@H](N)Cc2ccc(O)cc2)C(=O)N[C@@H](Cc2ccccc2)C(=O)N[C@@H]1C(=O)O` is 4.2

The recorded IC50 for CC1(C)SSC[C@H](NC(=O)C2(N)CCc3cc(O)ccc3C2)C(=O)N[C@@H](Cc2ccccc2)C(=O)N[C@@H]1C(=O)O (single isomer, unassigned) is 340
